Recorded IC50, one value per entry.
Biological target: MtFBA (Mycobacterium tuberculosis (strain ATCC 25618 / H37Rv), UniProt P9WQA3)
Assay: MtFBA enzyme inhibition
Format: biochemical
Conditions: SAR table
State the answer as a number, implicitly in µM.

Worked cases, answers included:
CS(=O)(=O)Nc1ccc2cccc(O)c2n1 [Compound 34]
570
Nc1cccc2cccnc12 [Compound 18]
79

Can you share its IC50? I mean this compound: O=C(O)c1ccc2cccc(O)c2n1 [Compound 5]
14

Can you share its IC50? I mean this compound: Oc1cccc2cccnc12 [Compound 6]
300
